Hi there, I'd appreciate the recorded A/AI for every entry that follows.
system_under_test: GluA1/2 (Homo sapiens, UniProt P42261+P42262)
Construct: expressed in transfected cells; host or cells: HEK293T
Sequence (P42261 19-906 isoform P42261-2 limits assumed): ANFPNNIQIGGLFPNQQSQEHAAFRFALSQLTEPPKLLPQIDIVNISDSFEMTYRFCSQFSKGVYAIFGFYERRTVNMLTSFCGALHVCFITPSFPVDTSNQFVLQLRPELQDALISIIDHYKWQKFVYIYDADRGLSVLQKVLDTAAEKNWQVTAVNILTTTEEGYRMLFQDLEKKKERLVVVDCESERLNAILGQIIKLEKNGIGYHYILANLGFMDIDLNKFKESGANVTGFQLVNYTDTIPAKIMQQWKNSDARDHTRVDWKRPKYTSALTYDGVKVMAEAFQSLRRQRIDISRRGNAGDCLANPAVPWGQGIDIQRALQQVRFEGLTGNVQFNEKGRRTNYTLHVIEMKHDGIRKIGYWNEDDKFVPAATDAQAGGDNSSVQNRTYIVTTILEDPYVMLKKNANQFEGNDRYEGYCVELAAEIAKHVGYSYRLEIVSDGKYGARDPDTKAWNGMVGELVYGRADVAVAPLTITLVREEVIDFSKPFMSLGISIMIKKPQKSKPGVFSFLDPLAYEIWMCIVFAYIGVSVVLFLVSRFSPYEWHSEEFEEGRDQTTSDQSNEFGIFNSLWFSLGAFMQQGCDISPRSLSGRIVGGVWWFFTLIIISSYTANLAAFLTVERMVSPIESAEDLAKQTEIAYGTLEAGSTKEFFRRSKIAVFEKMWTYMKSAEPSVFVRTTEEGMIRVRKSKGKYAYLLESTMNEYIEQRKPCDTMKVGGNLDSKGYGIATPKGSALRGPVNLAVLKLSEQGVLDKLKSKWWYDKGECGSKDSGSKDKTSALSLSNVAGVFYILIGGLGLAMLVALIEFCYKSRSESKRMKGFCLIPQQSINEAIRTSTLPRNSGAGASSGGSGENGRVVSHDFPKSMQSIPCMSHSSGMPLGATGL
Sequence (P42262 25-883 isoform P42262-2 limits assumed): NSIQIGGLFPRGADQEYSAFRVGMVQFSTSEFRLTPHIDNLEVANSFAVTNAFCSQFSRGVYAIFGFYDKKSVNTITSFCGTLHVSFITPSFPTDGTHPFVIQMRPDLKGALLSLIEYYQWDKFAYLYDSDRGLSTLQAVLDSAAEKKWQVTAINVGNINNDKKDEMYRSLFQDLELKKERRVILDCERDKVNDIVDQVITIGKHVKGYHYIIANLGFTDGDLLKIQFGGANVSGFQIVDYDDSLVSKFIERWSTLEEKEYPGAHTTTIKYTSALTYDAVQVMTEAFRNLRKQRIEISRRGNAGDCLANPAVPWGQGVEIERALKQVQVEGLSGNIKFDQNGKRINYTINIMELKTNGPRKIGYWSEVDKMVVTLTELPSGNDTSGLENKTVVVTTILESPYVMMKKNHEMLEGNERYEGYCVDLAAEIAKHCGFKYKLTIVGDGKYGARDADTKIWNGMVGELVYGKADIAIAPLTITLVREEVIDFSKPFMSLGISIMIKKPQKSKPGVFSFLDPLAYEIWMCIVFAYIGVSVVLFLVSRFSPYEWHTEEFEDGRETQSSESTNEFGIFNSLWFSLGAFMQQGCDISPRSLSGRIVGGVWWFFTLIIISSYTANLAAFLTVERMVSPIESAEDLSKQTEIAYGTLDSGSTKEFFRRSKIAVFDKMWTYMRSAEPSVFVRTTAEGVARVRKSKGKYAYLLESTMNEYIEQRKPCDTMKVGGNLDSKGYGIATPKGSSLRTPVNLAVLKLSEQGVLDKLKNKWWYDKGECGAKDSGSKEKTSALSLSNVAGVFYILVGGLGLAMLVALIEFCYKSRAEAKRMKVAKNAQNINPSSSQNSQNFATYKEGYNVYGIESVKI
test_name: Whole-cell patch-clamp recordings of heteromeric GluA1/2 AMPAR in transfected HEK293T cells
Type: cell-based
condition_description: ratio of current with glutamate alone (A) to inhibited current after TC compound (AI)
Protocol: The effect of five TC compounds on whole-cell currents of four AMPAR subunits (GluA1, GluA1/2, GluA2, and GluA2/3) was investigated using transfected HEK293T cells. […] The A/AI ratio was calculated to compare the results, where A represents normalized current readings and AI indicates the inhibited current following TC compound exposure. […] HEK293T cells were recorded for 36–48 h, at a temperature of 22 °C, with a membrane potential of −60 mV. […]
Write the value as a bare number.

Request: Entry `COc1ccc(-c2nc(C(=O)Nc3cc(OC)ccc3OC)cs2)cc1` has what A/AI?
Result: 4.80

Request: Entry `COc1ccc(-c2nc(C(=O)Nc3ccc(C(C)(C)C)cc3)cs2)cc1` has what A/AI?
Result: 2.86

Request: Entry `COc1ccc(-c2nc(C(=O)Nc3cc(OC)c(OC)c(OC)c3)cs2)cc1` has what A/AI?
Result: 5.38

Request: Entry `COc1ccc(-c2nc(C(=O)Nc3ccc(OC)c(OC)c3)cs2)cc1` has what A/AI?
Result: 4.98

Request: Entry `COc1ccc(-c2nc(C(=O)Nc3ccccc3)cs2)cc1` has what A/AI?
Result: 3.09

* * *

system_under_test: GluA2/3 (Homo sapiens, UniProt P42262+P42263)
Construct: expressed in transfected cells; host or cells: HEK293T
Sequence (P42262 25-883 isoform P42262-2 limits assumed): as above
Sequence (P42263 29-894 isoform P42263-2 limits assumed): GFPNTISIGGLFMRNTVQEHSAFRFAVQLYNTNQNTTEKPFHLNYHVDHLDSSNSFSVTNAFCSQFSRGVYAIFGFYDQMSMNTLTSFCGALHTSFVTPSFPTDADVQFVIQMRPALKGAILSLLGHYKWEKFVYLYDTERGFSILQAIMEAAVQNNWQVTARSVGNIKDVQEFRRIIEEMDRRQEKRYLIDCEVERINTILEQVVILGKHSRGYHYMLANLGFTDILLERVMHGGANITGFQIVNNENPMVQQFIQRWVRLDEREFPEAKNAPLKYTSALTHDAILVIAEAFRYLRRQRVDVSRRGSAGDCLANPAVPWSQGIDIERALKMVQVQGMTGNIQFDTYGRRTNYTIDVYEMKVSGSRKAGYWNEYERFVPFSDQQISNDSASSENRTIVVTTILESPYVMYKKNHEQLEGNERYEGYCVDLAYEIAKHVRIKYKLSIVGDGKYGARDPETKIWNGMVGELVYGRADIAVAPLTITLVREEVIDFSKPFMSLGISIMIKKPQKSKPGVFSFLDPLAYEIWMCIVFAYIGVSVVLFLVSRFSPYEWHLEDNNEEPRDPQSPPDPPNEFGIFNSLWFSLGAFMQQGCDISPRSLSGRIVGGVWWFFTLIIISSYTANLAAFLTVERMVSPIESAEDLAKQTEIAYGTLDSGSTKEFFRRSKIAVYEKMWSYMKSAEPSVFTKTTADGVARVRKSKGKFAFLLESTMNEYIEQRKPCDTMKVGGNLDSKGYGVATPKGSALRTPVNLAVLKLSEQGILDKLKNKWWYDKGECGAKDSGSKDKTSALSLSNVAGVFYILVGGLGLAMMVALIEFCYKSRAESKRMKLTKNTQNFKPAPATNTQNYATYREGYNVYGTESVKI
test_name: Whole-cell patch-clamp recordings of heteromeric GluA2/3 AMPAR in transfected HEK293T cells
Assay type: cell-based
condition_description: weighted tau of deactivation, 10 mM glutamate for 1 ms, with TC compound, glutamate alone 2.6±0.3
Hi there, I'd appreciate the recorded t deact for every entry that follows.
Answer format: number, then unit.

Request: Entry `COc1ccc(-c2nc(C(=O)Nc3cc(OC)c(OC)c(OC)c3)cs2)cc1` has what t deact?
Result: 5.9 ± 0.4 ms

Request: Entry `COc1ccc(-c2nc(C(=O)Nc3ccccc3)cs2)cc1` has what t deact?
Result: 3.4 ± 0.4 ms

Request: Entry `COc1ccc(-c2nc(C(=O)Nc3ccc(OC)c(OC)c3)cs2)cc1` has what t deact?
Result: 5.6 ± 0.4 ms

Request: Entry `COc1ccc(-c2nc(C(=O)Nc3ccc(C(C)(C)C)cc3)cs2)cc1` has what t deact?
Result: 3.3 ± 0.3 ms

Request: Entry `COc1ccc(-c2nc(C(=O)Nc3cc(OC)ccc3OC)cs2)cc1` has what t deact?
Result: 5.7 ± 0.4 ms

* * *

system_under_test: GluA2/3 (Homo sapiens, UniProt P42262+P42263)
Construct: expressed in transfected cells; host or cells: HEK293T
test_name: Whole-cell patch-clamp recordings of heteromeric GluA2/3 AMPAR in transfected HEK293T cells
Format: cell-based
condition_description: weighted tau of desensitization, 10 mM glutamate 500 ms, with TC compound, glutamate alone 2.7±0.2
Hi there, I'd appreciate the recorded t des for every entry that follows.
Give just the numeric value; ms need not be written.

Request: Quick check: t des on GluA2/3 (Homo sapiens, UniProt P42262+P42263), item `COc1ccc(-c2nc(C(=O)Nc3cc(OC)ccc3OC)cs2)cc1` ?
Result: 1.3

Request: Quick check: t des on GluA2/3 (Homo sapiens, UniProt P42262+P42263), item `COc1ccc(-c2nc(C(=O)Nc3ccc(OC)c(OC)c3)cs2)cc1` ?
Result: 1.2

Request: Quick check: t des on GluA2/3 (Homo sapiens, UniProt P42262+P42263), item `COc1ccc(-c2nc(C(=O)Nc3cc(OC)c(OC)c(OC)c3)cs2)cc1` ?
Result: 1.0

Request: Quick check: t des on GluA2/3 (Homo sapiens, UniProt P42262+P42263), item `COc1ccc(-c2nc(C(=O)Nc3ccc(C(C)(C)C)cc3)cs2)cc1` ?
Result: 1.9

Request: Quick check: t des on GluA2/3 (Homo sapiens, UniProt P42262+P42263), item `COc1ccc(-c2nc(C(=O)Nc3ccccc3)cs2)cc1` ?
Result: 1.8

* * *

Hi there, I'd appreciate the recorded Amplitude (glutamate plus TC compound) for every entry that follows.
system_under_test: GluA2 (Homo sapiens)
Construct: expressed in transfected cells; host or cells: HEK293T
test_name: Whole-cell patch-clamp recordings of homomeric GluA2 AMPAR in transfected HEK293T cells
Assay type: cell-based
condition_description: 10 mM glutamate + TC compound (12 µM optimal concentration), HEK293T, -60 mV, pH 7.4, 22 °C, mean ± SEM, n = 10
Give just the numeric value; pA need not be written.

Request: Entry COc1ccc(-c2nc(C(=O)Nc3ccccc3)cs2)cc1 [TC-3] has what Amplitude (glutamate plus TC compound)?
Result: 363

Request: Entry COc1ccc(-c2nc(C(=O)Nc3ccc(C(C)(C)C)cc3)cs2)cc1 [TC-4] has what Amplitude (glutamate plus TC compound)?
Result: 393

Request: Entry COc1ccc(-c2nc(C(=O)Nc3cc(OC)c(OC)c(OC)c3)cs2)cc1 [TC-2] has what Amplitude (glutamate plus TC compound)?
Result: 212

Request: Entry COc1ccc(-c2nc(C(=O)Nc3ccc(OC)c(OC)c3)cs2)cc1 [TC-1] has what Amplitude (glutamate plus TC compound)?
Result: 233

Request: Entry COc1ccc(-c2nc(C(=O)Nc3cc(OC)ccc3OC)cs2)cc1 [TC-5] has what Amplitude (glutamate plus TC compound)?
Result: 250

* * *

system_under_test: GluA1/2 (Homo sapiens, UniProt P42261+P42262)
Construct: expressed in transfected cells; host or cells: HEK293T
test_name: Whole-cell patch-clamp recordings of heteromeric GluA1/2 AMPAR in transfected HEK293T cells
Format: cell-based
condition_description: Table S6, read-out: Log IC50 (converted)
parameter_measured: IC50
Answer format: number, then unit.

Request: Entry `COc1ccc(-c2nc(C(=O)Nc3cc(OC)c(OC)c(OC)c3)cs2)cc1` has what IC50?
Result: 3.09 µM

Request: Entry `COc1ccc(-c2nc(C(=O)Nc3ccccc3)cs2)cc1` has what IC50?
Result: 5.62 µM

Request: Entry `COc1ccc(-c2nc(C(=O)Nc3ccc(C(C)(C)C)cc3)cs2)cc1` has what IC50?
Result: 5.75 µM

Request: Entry `COc1ccc(-c2nc(C(=O)Nc3cc(OC)ccc3OC)cs2)cc1` has what IC50?
Result: 3.47 µM

Request: Entry `COc1ccc(-c2nc(C(=O)Nc3ccc(OC)c(OC)c3)cs2)cc1` has what IC50?
Result: 3.39 µM

* * *

Hi there, I'd appreciate the recorded IC50 for every entry that follows.
system_under_test: GluA2 (Homo sapiens, UniProt P42262)
Construct: expressed in transfected cells; host or cells: HEK293T
Sequence (P42262 25-883 isoform P42262-2 limits assumed, species assumed): as the sequence (P42262 25-883 isoform P42262-2 limits assumed) above
test_name: Whole-cell patch-clamp recordings of homomeric GluA2 AMPAR in transfected HEK293T cells
Assay type: cell-based
condition_description: Table S6, read-out: Log IC50 (converted)
Experimental: The effect of five TC compounds on whole-cell currents of four AMPAR subunits (GluA1, GluA1/2, GluA2, and GluA2/3) was investigated using transfected HEK293T cells. […] The A/AI ratio was calculated to compare the results, where A represents normalized current readings and AI indicates the inhibited current following TC compound exposure. […] HEK293T cells were recorded for 36–48 h, at a temperature of 22 °C, with a membrane potential of −60 mV. […]
Give just the numeric value; µM need not be written.

Request: Entry COc1ccc(-c2nc(C(=O)Nc3ccc(OC)c(OC)c3)cs2)cc1 [TC-1] has what IC50?
Result: 3.31

Request: Entry COc1ccc(-c2nc(C(=O)Nc3ccccc3)cs2)cc1 [TC-3] has what IC50?
Result: 5.5

Request: Entry COc1ccc(-c2nc(C(=O)Nc3cc(OC)c(OC)c(OC)c3)cs2)cc1 [TC-2] has what IC50?
Result: 3.02

Request: Entry COc1ccc(-c2nc(C(=O)Nc3cc(OC)ccc3OC)cs2)cc1 [TC-5] has what IC50?
Result: 3.31

Request: Entry COc1ccc(-c2nc(C(=O)Nc3ccc(C(C)(C)C)cc3)cs2)cc1 [TC-4] has what IC50?
Result: 5.62

* * *

Tested on: AMPAR subunits (GluA1, GluA1/2, GluA2, and GluA2/3)
test_name: Whole-cell patch-clamp recordings, statements over all tested AMPAR subunits
Format: cell-based
condition_description: across all examined subunits
parameter_measured: reduction in τw des

Please review the following examples before continuing.
[[record]]
compound = "COc1ccc(-c2nc(C(=O)Nc3ccccc3)cs2)cc1 [TC-3]"
parameter_measured = "reduction in τw des"
observed_result = "little effect"

[[record]]
compound = "COc1ccc(-c2nc(C(=O)Nc3cc(OC)ccc3OC)cs2)cc1 [TC-5]"
parameter_measured = "reduction in τw des"
observed_result = "roughly twofold"

[[record]]
compound = "COc1ccc(-c2nc(C(=O)Nc3ccc(C(C)(C)C)cc3)cs2)cc1 [TC-4]"
parameter_measured = "reduction in τw des"
observed_result = "little effect"

[[record]]
compound = "COc1ccc(-c2nc(C(=O)Nc3cc(OC)c(OC)c(OC)c3)cs2)cc1 [TC-2]"
parameter_measured = "reduction in τw des"
observed_result = "2 to 3 fold"


Request: Entry COc1ccc(-c2nc(C(=O)Nc3ccc(OC)c(OC)c3)cs2)cc1 [TC-1] has what reduction in τw des?
Result: roughly twofold

Source listed as paper PMC11243149.
